measured on: c-Met (cytoplasmic domain) (Homo sapiens, UniProt P08581)
Construct: 10 ng/mL c-Met (cytoplasmic domain, Invitrogen Corporation #PV3143); purchased Invitrogen Corporation PV3143
Sequence (P08581 956-1390 limits assumed): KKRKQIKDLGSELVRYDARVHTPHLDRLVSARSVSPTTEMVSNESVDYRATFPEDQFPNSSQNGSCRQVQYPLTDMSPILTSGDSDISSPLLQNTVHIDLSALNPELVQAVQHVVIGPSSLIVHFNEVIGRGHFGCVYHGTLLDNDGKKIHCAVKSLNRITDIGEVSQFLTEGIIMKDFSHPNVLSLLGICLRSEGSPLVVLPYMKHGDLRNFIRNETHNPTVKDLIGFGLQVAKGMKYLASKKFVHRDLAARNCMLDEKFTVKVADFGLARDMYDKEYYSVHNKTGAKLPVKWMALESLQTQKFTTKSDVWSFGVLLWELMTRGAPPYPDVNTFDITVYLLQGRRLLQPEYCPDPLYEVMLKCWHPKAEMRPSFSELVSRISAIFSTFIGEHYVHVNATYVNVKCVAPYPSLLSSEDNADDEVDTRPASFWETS
assay explanation: c-Met Kinase Assay (same methods as for ALK, with modifications)
Format: biochemical
condition details: 1 μM ATP (Km level); read-out: cMet Activity (c-Met Kinase Inhibition, IC50)
outcome measure: IC50

Below are worked cases with known answers.
In [3]: df
Out[3]:
                                   compound                               measured_on  outcome_measure            result
0  COc1cc2c(cc1Nc1ncc(Cl)c(Nc3ccc(Cl)cc3S(=O)(=O)N(C)C)n1)CCN(CC(=O)N(C)C)CC2  c-Met (cytoplasmic domain) (Homo sapiens, UniProt P08581)             IC50        > 10000 nM
1  NC(=O)[C@@H]1[C@H](Nc2nc(Nc3ccc4c(c3)CCC(N3CCOCC3)CC4)ncc2Cl)[C@H]2C=C[C@@H]1C2 (stereo partly shown) [Example 671]  c-Met (cytoplasmic domain) (Homo sapiens, UniProt P08581)             IC50          < 100 nM
2  CNC(=O)c1cc(OC)ccc1Nc1nc(Nc2cc3c(cc2OC)CCN(CC(=O)N(C)C)CC3)ncc1Cl  c-Met (cytoplasmic domain) (Homo sapiens, UniProt P08581)             IC50  1000 to 10000 nM
3  NC(=O)[C@@H]1[C@H](Nc2nc(Nc3ccc4c(c3)CCC(NCC(F)F)CC4)ncc2Cl)[C@H]2C=C[C@@H]1C2 (stereo partly shown)  c-Met (cytoplasmic domain) (Homo sapiens, UniProt P08581)             IC50    100 to 1000 nM
4  CS(=O)(=O)N[C@@H]1CCCC[C@H]1Nc1nc(Nc2ccc3c(c2)CN(CCO)CCS3)ncc1Cl  c-Met (cytoplasmic domain) (Homo sapiens, UniProt P08581)             IC50  1000 to 10000 nM
5  CN1CCN(C2CCc3ccc(Nc4ncc(Cl)c(N[C@H]5[C@@H](C(N)=O)[C@@H]6C=C[C@H]5C6)n4)cc3CC2)CC1 (stereo partly shown)  c-Met (cytoplasmic domain) (Homo sapiens, UniProt P08581)             IC50  1000 to 10000 nM

Turning to the following compound.
q: Reported IC50, compound "COc1cc2c(cc1Nc1ncc(Cl)c(Nc3ccccc3S(=O)(=O)C(C)C)n1)CCN(CC(C)(F)F)CC2" : ____
a: > 10000 nM

###

measured on: c-Met (cytoplasmic domain) (Homo sapiens)
Construct: 10 ng/mL c-Met (cytoplasmic domain, Invitrogen Corporation #PV3143); purchased Invitrogen Corporation PV3143
assay explanation: c-Met Kinase Assay (same methods as for ALK, with modifications)
Format: biochemical
condition details: c-Met kinase inhibition, 1 μM ATP (Km level); read-out: cMet Activity
pIC50: −log10 of the molar value.
# pIC50 annotations

Below, each entry is followed by its recorded pIC50 result.
In [3]: df
Out[3]:
                                   molecule                               measured_on  outcome_measure        result
0  CC(C)N1CC2CC(C1)c1cc(Nc3ncc(Cl)c(N[C@@H]4CCCC[C@H]4NS(C)(=O)=O)n3)ccc12 (stereo partly shown) [Example 165]  c-Met (cytoplasmic domain) (Homo sapiens)            pIC50  5.00 to 6.00
1  CCN1C(=O)CCC(C)(C)c2cc(Nc3ncc(Cl)c(Nc4ccc(N5CCOCC5)cc4OC)n3)ccc21 [Example 391]  c-Met (cytoplasmic domain) (Homo sapiens)            pIC50        < 5.00
2  CCN1CCc2ccc(Nc3ncc(Cl)c(N[C@@H]4c5ccccc5C[C@@H]4O)n3)cc2CC1 [Example 235]  c-Met (cytoplasmic domain) (Homo sapiens)            pIC50  5.00 to 6.00
3  CCN1C(=O)CCCc2cc(Nc3ncc(Cl)c(Nc4cc(Cl)ccc4OC)n3)c(OC)cc21 [Example 137]  c-Met (cytoplasmic domain) (Homo sapiens)            pIC50        < 5.00
4  COc1c(Nc2ncc(Cl)c(N[C@@H]3CCCC[C@H]3NS(C)(=O)=O)n2)ccc2c1C1CCC(C2)N1 (stereo partly shown) [Example 92]  c-Met (cytoplasmic domain) (Homo sapiens)            pIC50        < 5.00
5  CCN1C(=O)C(C)(C)CCc2c1ccc(Nc1ncc(Cl)c(NC3C4C=CC(C4)C3C(N)=O)n1)c2OC (stereo not shown) [Example 142]  c-Met (cytoplasmic domain) (Homo sapiens)            pIC50        < 5.00

Attention now shifts to the item below.
q: # input molecule: COc1cc2c(cc1Nc1ncc(Cl)c(N[C@@H]3CCCC[C@H]3NS(C)(=O)=O)n1)CCN(CCNC(C)=O)CC2 [Example 256] ; wanted: its pIC50
a: < 5.00
